full-length LRRK2 wild type (Homo sapiens, UniProt Q5S007): reported IC50 for various molecules.
Sequence (Q5S007 whole entry): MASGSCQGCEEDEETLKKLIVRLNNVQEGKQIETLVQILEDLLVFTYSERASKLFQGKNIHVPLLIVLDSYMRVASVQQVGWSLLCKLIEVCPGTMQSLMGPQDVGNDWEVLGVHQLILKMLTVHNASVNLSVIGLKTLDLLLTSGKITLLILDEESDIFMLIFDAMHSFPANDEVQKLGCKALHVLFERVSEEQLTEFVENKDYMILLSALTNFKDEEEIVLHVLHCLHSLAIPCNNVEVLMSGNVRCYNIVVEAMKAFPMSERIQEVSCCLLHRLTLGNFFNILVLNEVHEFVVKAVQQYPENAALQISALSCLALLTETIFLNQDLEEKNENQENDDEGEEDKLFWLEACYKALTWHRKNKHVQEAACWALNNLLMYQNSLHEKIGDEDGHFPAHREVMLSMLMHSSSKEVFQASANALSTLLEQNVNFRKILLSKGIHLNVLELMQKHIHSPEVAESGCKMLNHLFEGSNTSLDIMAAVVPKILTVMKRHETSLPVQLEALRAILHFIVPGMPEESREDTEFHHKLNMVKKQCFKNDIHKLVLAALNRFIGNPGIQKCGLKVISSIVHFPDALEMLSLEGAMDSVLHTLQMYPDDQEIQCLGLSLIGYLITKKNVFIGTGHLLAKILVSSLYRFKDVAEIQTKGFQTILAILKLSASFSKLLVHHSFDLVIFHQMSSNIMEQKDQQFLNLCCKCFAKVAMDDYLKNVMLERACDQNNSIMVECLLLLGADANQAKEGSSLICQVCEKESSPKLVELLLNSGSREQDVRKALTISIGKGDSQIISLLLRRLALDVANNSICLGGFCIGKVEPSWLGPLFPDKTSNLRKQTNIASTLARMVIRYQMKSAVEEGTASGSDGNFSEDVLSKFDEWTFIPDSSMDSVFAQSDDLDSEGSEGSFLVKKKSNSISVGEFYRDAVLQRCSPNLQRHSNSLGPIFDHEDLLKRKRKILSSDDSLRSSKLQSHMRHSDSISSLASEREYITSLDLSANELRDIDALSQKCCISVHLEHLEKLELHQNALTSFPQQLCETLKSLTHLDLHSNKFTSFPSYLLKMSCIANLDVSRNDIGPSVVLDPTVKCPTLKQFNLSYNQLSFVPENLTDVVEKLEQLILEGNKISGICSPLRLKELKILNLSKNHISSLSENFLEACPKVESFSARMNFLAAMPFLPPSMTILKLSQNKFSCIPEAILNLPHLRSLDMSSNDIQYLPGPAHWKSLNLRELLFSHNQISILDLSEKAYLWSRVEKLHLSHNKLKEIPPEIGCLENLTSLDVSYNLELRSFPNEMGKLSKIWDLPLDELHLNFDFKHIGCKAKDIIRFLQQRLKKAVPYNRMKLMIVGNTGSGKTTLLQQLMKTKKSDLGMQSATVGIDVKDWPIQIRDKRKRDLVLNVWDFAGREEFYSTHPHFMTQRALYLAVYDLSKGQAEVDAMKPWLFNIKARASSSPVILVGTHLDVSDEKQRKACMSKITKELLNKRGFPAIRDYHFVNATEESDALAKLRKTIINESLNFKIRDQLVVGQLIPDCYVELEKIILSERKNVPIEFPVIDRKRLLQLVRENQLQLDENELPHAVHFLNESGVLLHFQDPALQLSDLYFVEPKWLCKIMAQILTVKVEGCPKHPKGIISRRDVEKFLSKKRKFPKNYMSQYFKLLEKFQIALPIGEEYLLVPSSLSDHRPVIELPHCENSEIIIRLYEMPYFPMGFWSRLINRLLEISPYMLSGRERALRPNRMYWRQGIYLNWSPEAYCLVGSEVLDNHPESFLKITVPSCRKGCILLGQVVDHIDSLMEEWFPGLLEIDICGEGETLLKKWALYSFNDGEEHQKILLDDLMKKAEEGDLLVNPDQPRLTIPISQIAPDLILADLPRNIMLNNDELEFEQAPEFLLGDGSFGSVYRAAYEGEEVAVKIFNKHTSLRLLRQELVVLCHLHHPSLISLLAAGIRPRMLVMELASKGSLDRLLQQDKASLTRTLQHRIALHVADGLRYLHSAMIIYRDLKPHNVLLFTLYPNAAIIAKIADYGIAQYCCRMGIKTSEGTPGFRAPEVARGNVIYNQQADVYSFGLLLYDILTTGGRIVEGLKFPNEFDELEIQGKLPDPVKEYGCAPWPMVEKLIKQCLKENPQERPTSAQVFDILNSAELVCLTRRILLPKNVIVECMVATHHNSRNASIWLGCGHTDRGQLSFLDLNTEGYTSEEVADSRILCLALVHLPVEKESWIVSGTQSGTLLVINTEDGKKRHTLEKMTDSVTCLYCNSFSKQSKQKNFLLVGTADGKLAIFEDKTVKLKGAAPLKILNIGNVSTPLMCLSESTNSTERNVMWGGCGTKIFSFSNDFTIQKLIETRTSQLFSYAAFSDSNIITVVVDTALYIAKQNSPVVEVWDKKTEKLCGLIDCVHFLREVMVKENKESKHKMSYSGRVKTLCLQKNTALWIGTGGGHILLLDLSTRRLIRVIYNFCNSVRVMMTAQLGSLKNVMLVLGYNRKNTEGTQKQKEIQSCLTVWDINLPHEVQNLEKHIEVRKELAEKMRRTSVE
Response body: numeric value in nM, unit text excluded.

Completed entries (count: 3):
MOLECULE | MEASUREMENT
CO[C@@H]1COC[C@H]1n1c(C#N)cc2cnc(Nc3ccc(C(C)(C)O)cc3OC3COC3)nc21 (racemic) | 109
CC(C(F)F)n1cc(Nc2ncc3cc(C#N)n([C@H]4COC[C@@H]4C)c3n2)c(OC2CC2)n1 (mixture of isomers) | 2
C[C@H]1COC[C@@H]1n1c(C#N)cc2cnc(Nc3cn(CS(C)(=O)=O)nc3OC3COC3)nc21 | 2

API: the following record is the query input.
Q: Quick check: IC50 on full-length LRRK2 wild type (Homo sapiens, UniProt Q5S007), item COCn1cc(Nc2ncc3cc(C#N)n([C@H]4COC[C@@H]4C)c3n2)c(OC2COC2)n1 ?
A: 14
